- assay-system: T1, human-CD40-monomer protein (human, UniProt P25942 21-193, limits assumed)
- T1 construct: Soluble monomer generated in house, used as SPR analyte; also called hCD40; hCD40-monomer
- T1 sequence (P25942 21-193 limits assumed): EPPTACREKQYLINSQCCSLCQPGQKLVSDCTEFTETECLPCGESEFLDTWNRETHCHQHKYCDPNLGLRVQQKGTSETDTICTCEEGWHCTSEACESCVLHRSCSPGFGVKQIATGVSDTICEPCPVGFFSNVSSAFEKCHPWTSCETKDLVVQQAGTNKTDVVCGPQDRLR
- procedure-summary: SPR, Ab captured on protein A, hCD40 monomer 500 and 50 nM, 1:1 fit; supernatant
result-type: koff (s⁻¹)
One number for each entry, in s⁻¹.

Report koff for every entry below.
1. Y12XX-hz34 (antibody, human IgG1, kappa, V domains shown, Humanized, IgG1-P238K; supernatant sample) VH: QVQLVQSGAEVKKPGSSVKVSCKASGYAFTSYWMHWVRQRPGQGLEWIGYINPTTGYSAYNQKFKDKATLTADKSTSTAYMELNSLRSEDTAVYYCARWDPRPFAYWGQGTLVTVSS VL: EIVMTQSPATLSVSPGERATLSCKASQDVSTAVAWYQQKPGQAPRLLIYSASYRYTGIPARFSGSGSGTEFTLTISSLQSEDFAVYYCQQHYSTPWTFGGGTKVEIKR
2. Y12XX-hz26 (antibody, human IgG1, kappa, V domains shown, Humanized, IgG1-P238K; supernatant sample) VH: QVQLVQSGAEVKKPGSSVKVSCKASGYAFTSYWMHWVRQAPGQGLEWMGQINPSQGRSQYNEKFKTRVTITADKSTSTAYMELSSLRSEDTAVYYCARWGLQPFAYWGQGTLVTVSS VL: DIQMTQSPSFLSASVGDRVTITCKASQDVSTAVAWYQQKPGKAPKLLIYSASYRYTGVPSRFSGSGSGTDFTLTISSLQPEDFATYYCQQHYSTPWTFGGGTKVEIKR
3. Y12XX-hz18 (antibody, human IgG1, kappa, V domains shown, Humanized, IgG1-P238K; supernatant sample) VH: QVQLVQSGAEVKKPGSSVKVSCKASGYAFTSYWMHWVRQAPGQGLEWMGYINPTTGYSAYNQKFKDKATLTADKSTSTAYMELSSLRSEDTAVYYCARWDPRPFAYWGQGTLVTVSS VL: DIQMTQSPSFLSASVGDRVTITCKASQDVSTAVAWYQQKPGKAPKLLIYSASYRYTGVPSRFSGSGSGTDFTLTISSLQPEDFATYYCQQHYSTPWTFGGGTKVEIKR
4. Y12XX-hz31 (antibody, human IgG1, kappa, V domains shown, Humanized, IgG1-P238K; supernatant sample) VH: QVQLVQSGAEVKKPGSSVKVSCKASGYAFTSYWMHWVRQRPGQGLEWIGFINPTTGYSEYNQKFKDRVTITADKSTSTAYMELNSLRSEDTAVYYCARWGLPPFAYWGQGTLVTVSS VL: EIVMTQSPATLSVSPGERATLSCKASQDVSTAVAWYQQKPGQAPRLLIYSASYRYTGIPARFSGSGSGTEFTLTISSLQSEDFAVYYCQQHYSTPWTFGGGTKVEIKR

Response:
[0.0028, 0.0012, 0.0024, "2.9e-07"]

Query: Tell me koff reported for Y12XX-hz22 (antibody, human IgG1, kappa, V domains shown, Humanized, IgG1-P238K; supernatant sample) VH: QVQLVQSGAEVKKPGSSVKVSCKASGYAFTSYWMHWVRQAPGQGLEWMGYINPTTGYSAYNQKFKDKATLTADKSTSTAYMELSSLRSEDTAVYYCARWDARPFAYWGQGTLVTVSS VL: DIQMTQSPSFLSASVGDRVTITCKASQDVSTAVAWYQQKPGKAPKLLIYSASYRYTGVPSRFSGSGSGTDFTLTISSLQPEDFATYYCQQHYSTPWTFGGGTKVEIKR
Response: 0.079
